tgt: BCRP (Homo sapiens)
Sequence (Q9UNQ0 whole entry): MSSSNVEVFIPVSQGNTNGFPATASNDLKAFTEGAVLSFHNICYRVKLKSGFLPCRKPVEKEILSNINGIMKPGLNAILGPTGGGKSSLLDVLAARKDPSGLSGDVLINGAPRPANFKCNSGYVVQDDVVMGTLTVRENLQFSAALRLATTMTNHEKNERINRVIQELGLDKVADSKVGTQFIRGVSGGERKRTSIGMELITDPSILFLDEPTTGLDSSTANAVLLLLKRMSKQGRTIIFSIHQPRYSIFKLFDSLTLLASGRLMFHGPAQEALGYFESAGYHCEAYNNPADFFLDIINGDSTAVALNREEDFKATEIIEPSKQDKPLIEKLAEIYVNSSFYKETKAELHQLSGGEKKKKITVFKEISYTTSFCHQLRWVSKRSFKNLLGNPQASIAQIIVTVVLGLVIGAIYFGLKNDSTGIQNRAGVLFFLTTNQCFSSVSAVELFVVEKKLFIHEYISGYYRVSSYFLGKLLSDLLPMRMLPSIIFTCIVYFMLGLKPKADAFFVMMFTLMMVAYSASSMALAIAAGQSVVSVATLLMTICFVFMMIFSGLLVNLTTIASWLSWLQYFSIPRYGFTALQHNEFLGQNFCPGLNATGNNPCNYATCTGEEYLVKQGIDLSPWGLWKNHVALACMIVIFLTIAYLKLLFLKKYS
test.method.notes: Transporter inhibition using membrane vesicles
measurement.conditions: IC50, Rosuvastatin (0.2 µM)
observed.property: IC50
Quote the value and follow it with the unit of measurement.

Short answer for COc1cccc2[nH]c(C(=O)N[C@@H](CC(C)C)C(=O)N[C@@H](C[C@@H]3CCNC3=O)C(=O)CO)cc12 : IC50 was 19.5 µM

* * *

Test system: CYP3A4/5
test.method.notes: Reversible CYP inhibition in human liver microsomes
measurement.conditions: human, human liver microsomes, pH 7.4, probe midazolam (mdz), Percent of Control Activity, CYP 3A4/5 (mdz), 200 µM, Zero-Minute Preincubation
observed.property: activity at 200 µM
Quote the value and follow it with the unit of measurement.

Short answer for COc1cccc2[nH]c(C(=O)N[C@@H](CC(C)C)C(=O)N[C@@H](C[C@@H]3CCNC3=O)C(=O)CO)cc12 : activity at 200 µM was 107%

* * *

tgt: CYP2C19 (Homo sapiens, UniProt P33261)
Sequence (P33261 whole entry): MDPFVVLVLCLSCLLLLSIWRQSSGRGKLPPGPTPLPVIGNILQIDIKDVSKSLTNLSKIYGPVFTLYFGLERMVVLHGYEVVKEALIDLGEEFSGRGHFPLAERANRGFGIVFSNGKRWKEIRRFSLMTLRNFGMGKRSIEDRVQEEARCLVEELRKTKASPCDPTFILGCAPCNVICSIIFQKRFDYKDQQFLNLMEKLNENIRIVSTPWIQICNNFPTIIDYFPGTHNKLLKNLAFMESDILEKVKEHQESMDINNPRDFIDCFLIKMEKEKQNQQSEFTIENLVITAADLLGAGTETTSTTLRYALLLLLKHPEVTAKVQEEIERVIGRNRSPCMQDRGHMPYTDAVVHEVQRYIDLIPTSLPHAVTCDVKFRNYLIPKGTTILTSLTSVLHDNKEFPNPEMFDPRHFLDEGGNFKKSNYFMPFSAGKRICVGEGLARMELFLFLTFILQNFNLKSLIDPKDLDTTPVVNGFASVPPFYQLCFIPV
test.method.notes: Reversible CYP inhibition in human liver microsomes
measurement.conditions: human, microsomes, pH 7.4, Percent of Control Activity, CYP 2C19, 15.8 µM, Zero-Minute Preincubation
observed.property: activity at 15.8 µM (%)
Numbers only, in %.

Short answer for COc1cccc2[nH]c(C(=O)N[C@@H](CC(C)C)C(=O)N[C@@H](C[C@@H]3CCNC3=O)C(=O)COP(=O)(O)O)cc12 : activity at 15.8 µM was 104

* * *

Tested on: CYP3A4/5
test.method.notes: Reversible CYP inhibition in human liver microsomes
measurement.conditions: human, human liver microsomes, pH 7.4, probe midazolam (mdz), Percent of Control Activity, CYP 3A4/5 (mdz), 0.398 µM, 30-Minute Preincubation
observed.property: activity at 0.398 µM (%)
Answers are plain numbers, in %.

Short answer for COc1cccc2[nH]c(C(=O)N[C@@H](CC(C)C)C(=O)N[C@@H](C[C@@H]3CCNC3=O)C(=O)COP(=O)(O)O)cc12 : activity at 0.398 µM was 100

* * *

tgt: CYP2C9 (Homo sapiens)
Sequence (P11712 whole entry): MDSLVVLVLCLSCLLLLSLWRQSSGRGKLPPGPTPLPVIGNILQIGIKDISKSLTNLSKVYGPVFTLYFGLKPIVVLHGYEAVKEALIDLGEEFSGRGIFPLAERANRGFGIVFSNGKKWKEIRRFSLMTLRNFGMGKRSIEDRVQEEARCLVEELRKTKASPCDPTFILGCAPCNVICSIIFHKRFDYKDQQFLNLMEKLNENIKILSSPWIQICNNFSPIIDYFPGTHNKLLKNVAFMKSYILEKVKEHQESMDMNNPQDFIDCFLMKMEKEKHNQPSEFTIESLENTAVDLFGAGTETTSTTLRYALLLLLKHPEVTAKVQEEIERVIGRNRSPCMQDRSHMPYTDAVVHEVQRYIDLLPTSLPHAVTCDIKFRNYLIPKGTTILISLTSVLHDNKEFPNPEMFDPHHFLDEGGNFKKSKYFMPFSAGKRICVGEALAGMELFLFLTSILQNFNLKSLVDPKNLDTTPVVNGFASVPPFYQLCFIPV
test.method.notes: Reversible CYP inhibition in human liver microsomes
measurement.conditions: human, microsomes, pH 7.4, Percent of Control Activity, CYP 2C9, 0.214 µM, Zero-Minute Preincubation
observed.property: activity at 0.214 µM (%)
Numbers only, in %.

Short answer for COc1cccc2[nH]c(C(=O)N[C@@H](CC(C)C)C(=O)N[C@@H](C[C@@H]3CCNC3=O)C(=O)CO)cc12 : activity at 0.214 µM was 102

* * *

test.method.notes: Metabolic stability and enzyme kinetics in liver S9 (conversion to PF-00835231)
measurement.conditions: human, liver S9, pH 7.5, Human liver S9 Clint, clearance input
observed.property: microsomal CLint (µL/min/mg)
Numbers only, in µL/min/mg.

Short answer for COc1cccc2[nH]c(C(=O)N[C@@H](CC(C)C)C(=O)N[C@@H](C[C@@H]3CCNC3=O)C(=O)COP(=O)(O)O)cc12 [PF-07304814] : microsomal CLint was 381

* * *

tgt: CYP2C19 (Homo sapiens)
test.method.notes: Reversible CYP inhibition in human liver microsomes
measurement.conditions: human, microsomes, pH 7.4, Percent of Control Activity, CYP 2C19, 0.1 µM, Zero-Minute Preincubation
observed.property: activity at 0.1 µM

Short answer for COc1cccc2[nH]c(C(=O)N[C@@H](CC(C)C)C(=O)N[C@@H](C[C@@H]3CCNC3=O)C(=O)CO)cc12 : activity at 0.1 µM was 95.2%

* * *

tgt: CYP2C8 (Homo sapiens)
Sequence (P10632 1-490): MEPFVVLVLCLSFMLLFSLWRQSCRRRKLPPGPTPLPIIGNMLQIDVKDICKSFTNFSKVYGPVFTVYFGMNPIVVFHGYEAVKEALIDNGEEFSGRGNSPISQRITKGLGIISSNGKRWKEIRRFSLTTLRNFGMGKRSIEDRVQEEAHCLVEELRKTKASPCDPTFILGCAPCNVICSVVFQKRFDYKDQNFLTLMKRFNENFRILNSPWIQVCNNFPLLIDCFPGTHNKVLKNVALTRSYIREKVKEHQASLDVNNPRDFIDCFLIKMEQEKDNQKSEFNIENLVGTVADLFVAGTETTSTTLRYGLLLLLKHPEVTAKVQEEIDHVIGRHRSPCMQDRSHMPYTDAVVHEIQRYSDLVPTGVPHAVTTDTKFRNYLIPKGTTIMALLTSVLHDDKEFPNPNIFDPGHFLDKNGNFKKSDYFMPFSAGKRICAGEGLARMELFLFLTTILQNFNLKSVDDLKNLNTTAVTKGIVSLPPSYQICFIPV
test.method.notes: Reversible CYP inhibition in human liver microsomes
measurement.conditions: human, microsomes, pH 7.4, Percent of Control Activity, CYP 2C8, 0.1 µM, 30-Minute Preincubation
observed.property: activity at 0.1 µM (%)
Give bare numbers, in %.

Short answer for COc1cccc2[nH]c(C(=O)N[C@@H](CC(C)C)C(=O)N[C@@H](C[C@@H]3CCNC3=O)C(=O)CO)cc12 : activity at 0.1 µM was 97.4

* * *

tgt: UniProtKB P05177
test.method.notes: Reversible CYP inhibition in human liver microsomes
measurement.conditions: human, microsomes, pH 7.4, Percent of Control Activity, CYP 1A2, 0.158 µM, 30-Minute Preincubation
observed.property: activity at 0.158 µM (%)
One number for each entry, in %.

Short answer for COc1cccc2[nH]c(C(=O)N[C@@H](CC(C)C)C(=O)N[C@@H](C[C@@H]3CCNC3=O)C(=O)COP(=O)(O)O)cc12 : activity at 0.158 µM was 102

* * *

tgt: MATE2K (Homo sapiens, UniProt Q86VL8)
Construct: expressed in transfected cells; host or cells: HEK293
Sequence (Q86VL8 1-566 isoform Q86VL8-3): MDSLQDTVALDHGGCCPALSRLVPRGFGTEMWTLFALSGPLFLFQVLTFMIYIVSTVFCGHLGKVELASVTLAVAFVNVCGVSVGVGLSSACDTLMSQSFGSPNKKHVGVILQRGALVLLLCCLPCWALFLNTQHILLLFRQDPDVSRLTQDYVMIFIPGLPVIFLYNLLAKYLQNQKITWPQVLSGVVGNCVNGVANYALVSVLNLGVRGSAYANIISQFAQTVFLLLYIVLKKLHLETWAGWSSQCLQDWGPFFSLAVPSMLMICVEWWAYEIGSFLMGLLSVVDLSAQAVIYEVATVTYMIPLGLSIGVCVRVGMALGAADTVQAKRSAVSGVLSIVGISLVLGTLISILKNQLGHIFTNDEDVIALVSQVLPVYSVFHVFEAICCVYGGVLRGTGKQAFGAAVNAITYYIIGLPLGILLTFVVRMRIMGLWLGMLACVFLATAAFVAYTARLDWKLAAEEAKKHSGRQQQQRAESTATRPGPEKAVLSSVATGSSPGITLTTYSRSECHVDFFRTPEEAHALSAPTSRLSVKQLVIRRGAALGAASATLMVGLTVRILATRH
test.method.notes: Transporter inhibition using transfected HEK293 cells
Type: in vitro ADME
measurement.conditions: IC50, [14C]Metformin (20 µM)
observed.property: pIC50
Numbers only, as −log10 of the molar value.

Short answer for COc1cccc2[nH]c(C(=O)N[C@@H](CC(C)C)C(=O)N[C@@H](C[C@@H]3CCNC3=O)C(=O)CO)cc12 : pIC50 was 3.75

* * *

System: CYP3A4/5
test.method.notes: in vitro
measurement.conditions: human, microsomes, pH 7.4, Percent of Control Activity, CYP 3A4/5 (mdz), 0.398 µM, 30-Minute Preincubation
observed.property: activity at 0.398 µM (%)
One number for each entry, in %.

Short answer for COc1cccc2[nH]c(C(=O)N[C@@H](CC(C)C)C(=O)N[C@@H](C[C@@H]3CCNC3=O)C(=O)COP(=O)(O)O)cc12 [PF-07304814] : activity at 0.398 µM was 101

* * *

tgt: CYP1A2 (Homo sapiens, UniProt P05177)
Sequence (P05177 whole entry): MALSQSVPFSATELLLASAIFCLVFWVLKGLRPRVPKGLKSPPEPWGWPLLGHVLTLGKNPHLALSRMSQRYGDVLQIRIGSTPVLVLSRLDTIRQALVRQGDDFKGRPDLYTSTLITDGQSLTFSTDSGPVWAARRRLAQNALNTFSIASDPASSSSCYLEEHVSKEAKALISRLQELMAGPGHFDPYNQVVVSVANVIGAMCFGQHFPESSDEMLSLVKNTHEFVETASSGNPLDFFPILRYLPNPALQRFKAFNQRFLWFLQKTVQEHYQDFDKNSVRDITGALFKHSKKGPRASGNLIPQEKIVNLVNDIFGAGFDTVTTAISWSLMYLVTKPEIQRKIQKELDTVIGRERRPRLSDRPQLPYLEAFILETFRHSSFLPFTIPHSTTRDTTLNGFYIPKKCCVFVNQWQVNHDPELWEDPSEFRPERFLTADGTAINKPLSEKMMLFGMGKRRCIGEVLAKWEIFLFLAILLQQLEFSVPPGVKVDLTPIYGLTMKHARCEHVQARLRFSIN
test.method.notes: Reversible CYP inhibition in human liver microsomes
measurement.conditions: human, microsomes, pH 7.4, Percent of Control Activity, CYP 1A2, 93.5 µM, 30-Minute Preincubation
observed.property: activity at 93.5 µM (%)
Answers are plain numbers, in %.

Short answer for COc1cccc2[nH]c(C(=O)N[C@@H](CC(C)C)C(=O)N[C@@H](C[C@@H]3CCNC3=O)C(=O)CO)cc12 : activity at 93.5 µM was 89.6

* * *

Test system: VeroE6-EGFP cells
measurement.conditions: monkey
observed.property: CC50

Short answer for COc1cccc2[nH]c(C(=O)N[C@@H](CC(C)C)C(=O)N[C@@H](C[C@@H]3CCNC3=O)C(=O)CO)cc12 : CC50 was > 50 µM

* * *

test.method.notes: Plasma protein binding by equilibrium dialysis
measurement.conditions: Sprague-Dawley, rat, plasma, pH 7.4, fraction unbound Geomean, rat plasma, 3.44 uM, n=12
observed.property: fraction unbound at 6 h, 3.44 uM
Answers are plain numbers.

Short answer for COc1cccc2[nH]c(C(=O)N[C@@H](CC(C)C)C(=O)N[C@@H](C[C@@H]3CCNC3=O)C(=O)COP(=O)(O)O)cc12 [PF-07304814] : fraction unbound at 6 h, 3.44 uM was 0.379

* * *

tgt: CYP2C19 (Homo sapiens, UniProt P33261)
test.method.notes: Reversible CYP inhibition in human liver microsomes
measurement.conditions: human, microsomes, pH 7.4, Percent of Control Activity, CYP 2C19, 2.09 µM, Zero-Minute Preincubation
observed.property: activity at 2.09 µM

Entry COc1cccc2[nH]c(C(=O)N[C@@H](CC(C)C)C(=O)N[C@@H](C[C@@H]3CCNC3=O)C(=O)CO)cc12 , tested on CYP2C19 (Homo sapiens, UniProt P33261), has a reported activity at 2.09 µM of 85.8%

* * *

tgt: UniProt P10632
test.method.notes: Reversible CYP inhibition in human liver microsomes
measurement.conditions: human, microsomes, pH 7.4, Percent of Control Activity, CYP 2C8, 0.158 µM, Zero-Minute Preincubation
observed.property: activity at 0.158 µM (%)
Numbers only, in %.

Entry COc1cccc2[nH]c(C(=O)N[C@@H](CC(C)C)C(=O)N[C@@H](C[C@@H]3CCNC3=O)C(=O)COP(=O)(O)O)cc12 [PF-07304814] , tested on UniProt P10632, has a reported activity at 0.158 µM of 91.3
